# assay context: 318.15 K; 101.33 kPa; Liquid; Vibrating tube method
± gives the expanded uncertainty stated by the source.
Record form. Attribute: mass density. Fill in for each entry.
Note: a bare number is incomplete; add the unit.

# mass density of CC(=O)[O-].CCCC[N+]1(C)CCCC1 [1-butyl-1-methylpyrrolidinium acetate] = 1009.2 ± 2.5 kg/m3

Memo: CC(=O)[O-].CCn1cc[nH+]c1 [1-ethyl-1H-imidazolium acetate] , reported mass density: 1017 ± 2.5 kg/m3

Value of measured mass density for the entry CC(=O)[O-].CCCCn1cc[n+](C)c1 [1-butyl-3-methylimidazolium acetate] : 1040 ± 0.3 kg/m3

mass density measured on CC(=O)O.CCN(C)C [N,N-dimethylethanamine acetate] = 1000.5 ± 0.3 kg/m3

---

Please respond with reported mass density for every item in the list.
# assay context: 308.15 K; 101.33 kPa; Liquid; Vibrating tube method
I only need the number, in kg/m3, no unit after it.

Documented mass density of CC(=O)O.CCN(C)C [N,N-dimethylethanamine acetate] : 1008.3

Noted for CC(=O)[O-].CCCC[N+]1(C)CCCC1 [1-butyl-1-methylpyrrolidinium acetate] : its mass density reads 1015.1

The compound listed as CC(=O)[O-].CCn1cc[nH+]c1 [1-ethyl-1H-imidazolium acetate] has a reported mass density of 1025.6

The compound CC(=O)[O-].CCCCn1cc[n+](C)c1 [1-butyl-3-methylimidazolium acetate] showed mass density equal to 1046.1

---

Task for the reader: assign each of the following compounds its reported refractive index.
# assay text: refractive index (Na D-line) (dimensionless)
# assay context: 323.15 K; 101.33 kPa; Liquid; Standard Abbe refractometry
Number only, please.

Briefly, refractive index measured for CC(=O)[O-].CCn1cc[n+](C)c1 [1-ethyl-3-methylimidazolium acetate] : 1.49307

Lookup result for CC(=O)[O-].CCCC[N+]1(C)CCCC1 [1-butyl-1-methylpyrrolidinium acetate] ; measured refractive index: 1.4632

Recorded result, CC(=O)O.CCN(C)C [N,N-dimethylethanamine acetate] , refractive index: 1.40991

get_value(item= CC(=O)[O-].CCCCn1cc[n+](C)c1 [1-butyl-3-methylimidazolium acetate] , readout=refractive index) returns 1.4806

Just so you know, measured refractive index for CC(=O)[O-].CCn1cc[nH+]c1 [1-ethyl-1H-imidazolium acetate] came out at 1.44791

---

Please respond with reported viscosity for every item in the list.
# assay context: 358.15 K; 101.33 kPa; Liquid; Concentric cylinders viscometry
Field: numeric (mPa·s). Do not append units.

response.value for CC(=O)[O-].CCn1cc[nH+]c1 [1-ethyl-1H-imidazolium acetate] (field: viscosity) = 1.515

For this molecule ( CC(=O)O.CCN(C)C [N,N-dimethylethanamine acetate] ), measured viscosity is 2.943

In plain terms, CC(=O)[O-].CCCCn1cc[n+](C)c1 [1-butyl-3-methylimidazolium acetate] has a documented viscosity of 17.45

Record CC(=O)[O-].CCCC[N+]1(C)CCCC1 [1-butyl-1-methylpyrrolidinium acetate] . Reported viscosity: 10.16

---

# assay context: 343.15 K; 101.33 kPa; Liquid; Vibrating tube method
observation type: mass density (kg/m3)
The reply should be a number in kg/m3, with the unit left off.

Record CC(=O)[O-].CCCCn1cc[n+](C)c1 [1-butyl-3-methylimidazolium acetate] , field mass density: 1025

Lab note: CC(=O)O.CCN(C)C [N,N-dimethylethanamine acetate] gave mass density of 981.1

Entry CC(=O)[O-].CCCC[N+]1(C)CCCC1 [1-butyl-1-methylpyrrolidinium acetate] — recorded mass density = 994.9

Value of mass density reported for the molecule CC(=O)[O-].CCn1cc[nH+]c1 [1-ethyl-1H-imidazolium acetate] is 995.8

---

# assay context: 353.15 K; 101.33 kPa; Liquid; Concentric cylinders viscometry
Consider the following compounds; for each one, report its viscosity.
Number in mPa·s, nothing else.

Per the records, this compound ( CC(=O)[O-].CCn1cc[nH+]c1 [1-ethyl-1H-imidazolium acetate] ) has viscosity equal to 1.547

Input CC(=O)[O-].CCCCn1cc[n+](C)c1 [1-butyl-3-methylimidazolium acetate] . Output viscosity: 20.76

Input CC(=O)[O-].CCCC[N+]1(C)CCCC1 [1-butyl-1-methylpyrrolidinium acetate] . Output viscosity: 11.84

viscosity reported for this compound CC(=O)O.CCN(C)C [N,N-dimethylethanamine acetate] : 3.132

---

For each entry below, report its viscosity value.
# assay context: 313.15 K; 101.33 kPa; Liquid; Concentric cylinders viscometry
Use mPa·s as the unit, but write only the number.

CC(=O)[O-].CCCCn1cc[n+](C)c1 [1-butyl-3-methylimidazolium acetate] has a reported viscosity of 112.23

What the record says about CC(=O)[O-].CCCC[N+]1(C)CCCC1 [1-butyl-1-methylpyrrolidinium acetate] : viscosity is 48.45

What the record says about CC(=O)O.CCN(C)C [N,N-dimethylethanamine acetate] : viscosity is 8.275

Short answer for CC(=O)[O-].CCn1cc[nH+]c1 [1-ethyl-1H-imidazolium acetate] : viscosity was 3.225

---

# assay text: refractive index (Na D-line) (dimensionless)
# assay context: 333.15 K; 101.33 kPa; Liquid; Standard Abbe refractometry
observation type: refractive index
In your answer, state the number alone without any accompanying words.

Kindly note the recorded refractive index for CC(=O)[O-].CCCCn1cc[n+](C)c1 [1-butyl-3-methylimidazolium acetate] , which is 1.4777

Note to self: refractive index recorded for CC(=O)[O-].CCCC[N+]1(C)CCCC1 [1-butyl-1-methylpyrrolidinium acetate] was 1.46042

// recorded refractive index for CC(=O)[O-].CCn1cc[nH+]c1 [1-ethyl-1H-imidazolium acetate] : 1.44395

Sample CC(=O)O.CCN(C)C [N,N-dimethylethanamine acetate] ; refractive index observed: 1.40649

// CC(=O)[O-].CCn1cc[n+](C)c1 [1-ethyl-3-methylimidazolium acetate] : refractive index value = 1.49035

---

# assay text: refractive index (Na D-line) (dimensionless)
# assay context: 303.15 K; 101.33 kPa; Liquid; Standard Abbe refractometry
observation type: refractive index
Response field accepts a number only; no unit should be typed.

Measured refractive index of CC(=O)O.CCN(C)C [N,N-dimethylethanamine acetate] : 1.41655

Recorded result, CC(=O)[O-].CCn1cc[nH+]c1 [1-ethyl-1H-imidazolium acetate] , refractive index: 1.45576

The value of refractive index measured for the compound CC(=O)[O-].CCCC[N+]1(C)CCCC1 [1-butyl-1-methylpyrrolidinium acetate] turned out to be 1.46868

Measured refractive index, CC(=O)[O-].CCn1cc[n+](C)c1 [1-ethyl-3-methylimidazolium acetate] : 1.49854

Form: compound = CC(=O)[O-].CCCCn1cc[n+](C)c1 [1-butyl-3-methylimidazolium acetate] ; refractive index = 1.48725

---

# assay context: 338.15 K; 101.33 kPa; Liquid; Concentric cylinders viscometry
Provide the recorded viscosity for the entries that follow.

Recorded viscosity (compound CC(=O)[O-].CCCC[N+]1(C)CCCC1 [1-butyl-1-methylpyrrolidinium acetate] ): 18.05 mPa·s

The compound listed as CC(=O)[O-].CCCCn1cc[n+](C)c1 [1-butyl-3-methylimidazolium acetate] shows viscosity equal to 34.66 mPa·s

Briefly, viscosity measured for CC(=O)[O-].CCn1cc[nH+]c1 [1-ethyl-1H-imidazolium acetate] : 2.078 mPa·s

So for CC(=O)O.CCN(C)C [N,N-dimethylethanamine acetate] , the logged viscosity turned out to be 4.427 mPa·s

---

Please provide measured refractive index for the entries that follow.
# assay text: refractive index (Na D-line) (dimensionless)
# assay context: 293.15 K; 101.33 kPa; Liquid; Standard Abbe refractometry
Form field (numeric): enter value without unit.

// refractive index value for CC(=O)[O-].CCCCn1cc[n+](C)c1 [1-butyl-3-methylimidazolium acetate] : 1.49021

Please fill in: refractive index reported for CC(=O)O.CCN(C)C [N,N-dimethylethanamine acetate] = 1.41983

response.value for CC(=O)[O-].CCn1cc[nH+]c1 [1-ethyl-1H-imidazolium acetate] (field: refractive index) = 1.45966

The value of refractive index measured for the compound CC(=O)[O-].CCCC[N+]1(C)CCCC1 [1-butyl-1-methylpyrrolidinium acetate] turned out to be 1.47075

Consider CC(=O)[O-].CCn1cc[n+](C)c1 [1-ethyl-3-methylimidazolium acetate] . Its measured refractive index is 1.50129

---

# assay context: 348.15 K; 101.33 kPa; Liquid; Vibrating tube method
Answer each item with its documented mass density.
Numeric answer only, unit kg/m3 assumed.

Data point: CC(=O)[O-].CCn1cc[nH+]c1 [1-ethyl-1H-imidazolium acetate] ; mass density = 991.5

Given item CC(=O)[O-].CCCC[N+]1(C)CCCC1 [1-butyl-1-methylpyrrolidinium acetate] , the value recorded as its mass density is 992

Note to self: mass density recorded for CC(=O)[O-].CCCCn1cc[n+](C)c1 [1-butyl-3-methylimidazolium acetate] was 1022.1

For CC(=O)O.CCN(C)C [N,N-dimethylethanamine acetate] the molecule record lists mass density as 977.2
